experiment summary: Plasma concentration in BALB/c mouse at 30 mg/kg, po after 90 mins
Type: ADME, organism-based
Parameters: dose 30 mg/kg, route oral
recorded endpoint: concentration at […] (ng/mL)
Numeric only. Scale: ng/mL

Lookup: Give the measured concentration at […] for O=C(NC[C@@H]1C[C@@H](F)CN1)c1ccc(-c2cnc3ccc(NCCCF)nn23)cc1F
Found: 480

Lookup: Give the measured concentration at […] for O=C(NC[C@@H]1C[C@@H](F)CN1)c1ccc(-c2cnc3ccc(NCCCCF)nn23)cc1F
Found: 420

Lookup: Give the measured concentration at […] for O=C(NC[C@@H]1C[C@@H](F)CN1)c1ccc(-c2cnc3ccc(NC4CCCC4)nn23)cc1F
Found: 660

Lookup: Give the measured concentration at […] for CSCCCNc1ccc2ncc(-c3ccc(C(=O)NC[C@@H]4C[C@@H](F)CN4)c(F)c3)n2n1
Found: 150

Lookup: Give the measured concentration at […] for CCCCCNc1ccc2ncc(-c3ccc(C(=O)NC[C@@H]4C[C@@H](F)CN4)c(F)c3)n2n1
Found: 93

Lookup: Give the measured concentration at […] for O=C(NCCN1CCCC1)c1ccc(-c2cnc3ccc(NCC4CC4)nn23)cc1
Found: 440

Lookup: Give the measured concentration at […] for O=C(NCCN1CCCC1)c1ccc(-c2cnc3ccc(NCC4CC4)nn23)cc1F
Found: 290
